- Protocol text: Maximum oral bioavailability in dog hepatocytes based well stirred liver model at 1 uM measured after 2 to 90 mins by LC-MS/MS analysis
- Assay type: ADME, Canis lupus familiaris, Hepatocyte
- Assay context: time 2-90 min, read-out: Fmax
Measurement label: Fh at 1 µM (%)
Output spec: scalar in %, unitless text.

get_value(item= Cc1c(N2CCCC2)nc2ccc(Br)cc2c1C(=O)NC[C@H](CCC(=O)O)c1ccccc1Cl [BAY-6672] , readout=Fh at 1 µM) returns 18

----------
- Protocol text: Clearance in Wistar rat hepatocytes assessed as extrapolated blood clearance at 1 uM measured after 2 to 90 mins by LC-MS/MS analysis
- Type: ADME, cell-based, Hepatocyte
- Assay context: time 2-90 min
Consider the following molecules; for each one, report its CLhep predicted at 1 µM.
Output spec: scalar in mL/min/kg, unitless text.

get_value(item= Cc1c(-c2ccccc2)nc2ccc(Br)cc2c1C(=O)Nc1ccc(C(N)=O)cc1F , readout=CLhep predicted at 1 µM) returns 58.3

get_value(item= COc1ccccc1C(C)CNC(=O)c1c(C)c(-c2ccccc2)nc2ccc(Br)cc12 (single isomer, unassigned; (-)) , readout=CLhep predicted at 1 µM) returns 65

get_value(item= Cc1c(-c2ccccc2)nc2ccc(Br)cc2c1C(=O)NCC(C(=O)O)c1ccccc1Cl (stereo in doubt; 31) , readout=CLhep predicted at 1 µM) returns 15

----------
- Protocol text: Maximum oral bioavailability in rat hepatocytes based well stirred liver model at 1 uM measured after 2 to 90 mins by LC-MS/MS analysis
- Format: ADME, Hepatocyte
- Assay context: time 2-90 min, read-out: Fmax
Measurement label: Fh at 1 µM (%)
Output spec: scalar in %, unitless text.

get_value(item= Cc1c(-c2ccccc2)nc2ccc(Br)cc2c1C(=O)NCCc1cccnc1 , readout=Fh at 1 µM) returns 4

get_value(item= Cc1c(N2CCCC2)nc2ccc(Br)cc2c1C(=O)NC[C@H](CCC(=O)O)c1ccccc1Cl , readout=Fh at 1 µM) returns 67

get_value(item= Cc1c(-c2ccccc2)nc2ccc(Br)cc2c1C(=O)NCC(C)c1ccccn1 (racemic) , readout=Fh at 1 µM) returns 24

get_value(item= Cc1c(-c2ccccc2)nc2ccc(Br)cc2c1C(=O)NCCc1ccccn1 , readout=Fh at 1 µM) returns 7

get_value(item= Cc1c(-c2ccccc2)nc2ccc(Br)cc2c1C(=O)NCC(C(=O)O)c1ccccc1Cl (stereo in doubt; 31) , readout=Fh at 1 µM) returns 78

get_value(item= COc1ccccc1C(C)CNC(=O)c1c(C)c(-c2ccccc2)nc2ccc(Br)cc12 (single isomer, unassigned; (-)) , readout=Fh at 1 µM) returns 6

----------
Consider the following compounds; for each one, report its logD.
- Protocol text: Lipophilicity, log D of compound at pH 7.5 by HPLC analysis
- Assay context: buffer

get_value(item= Cc1c(-c2ccccc2)nc2ccc(Cl)cc2c1C(=O)Nc1ccc(C(=O)O)cc1F , readout=logD) returns 1.9

get_value(item= Cc1c(-c2ccccc2)nc2ccc(Br)cc2c1COc1ccc(C(=O)O)cc1F , readout=logD) returns 2.2

get_value(item= COc1cccc(C(CNC(=O)c2c(C)c(-c3ccccc3)nc3ccc(Br)cc23)CC(=O)O)c1 (racemic) , readout=logD) returns 2

get_value(item= CCC1CCCN(c2nc3ccc(Br)cc3c(C(=O)NCC(CCC(=O)O)c3ccccc3Cl)c2C)C1 (single isomer, unassigned; 52) , readout=logD) returns 3.3

get_value(item= Cc1c(C(=O)Nc2ccc(C(=O)O)cc2F)c2cc(Br)ccc2[n+]([O-])c1-c1ccccc1 , readout=logD) returns 1.4

get_value(item= Cc1c(N2CCCC2)nc2ccc(Br)cc2c1C(=O)NC[C@H](CCC(=O)O)c1ccccc1Cl , readout=logD) returns 2.3

get_value(item= Cc1c(-c2ccccc2)nc2ccc(Br)cc2c1C(=O)NCC(CCCC(=O)O)c1ccccc1Cl (single isomer, unassigned; (+)) , readout=logD) returns 2.3

get_value(item= Cc1c(-c2ccccc2)nc2ccc(Br)cc2c1C(=O)NCC(CCC(=O)O)c1ccccc1Cl (single isomer, unassigned; (+)) , readout=logD) returns 2.2

get_value(item= O=C(O)c1ccc(NC(=O)c2c(C3CC3)c(-c3ccccc3)nc3ccc(Br)cc23)c(F)c1 , readout=logD) returns 2.1

get_value(item= Cc1c(-c2ccccc2)nc2ccc(Br)cc2c1C(=O)NCC(CCC(=O)O)c1c(F)ccc(F)c1Cl (single isomer, unassigned; (+)) , readout=logD) returns 2.2

get_value(item= O=C(O)c1ccc(NC(=O)c2c(Cl)c(-c3ccccc3)nc3ccc(Br)cc23)c(F)c1 , readout=logD) returns 2.1

get_value(item= Cc1c(-c2ccccc2)nc2ccc(C(F)(F)F)cc2c1C(=O)Nc1ccc(C(=O)O)cc1F , readout=logD) returns 2.1

get_value(item= COc1ccccc1C(CNC(=O)c1c(C)c(-c2ccccc2)nc2ccc(Br)cc12)CC(=O)O (single isomer, unassigned; (+)) , readout=logD) returns 2

get_value(item= Cc1c(-c2ccccc2)nc2ccc(Br)cc2c1C(=O)NCCc1cccnc1 , readout=logD) returns 2.6

get_value(item= Cc1c(-c2ccccc2)nc2ccc(Br)cc2c1C(=O)Nc1ccc(C(=O)O)cc1F , readout=logD) returns 1.9
